Experiment: in vitro
Assay type: cell-based, human
Conditions: human
property-label: IC20 at 48 h
A bare number is not enough; add the unit after it.

[ask] Given the entry CCCCCCCCC=O , report its measured IC20 at 48 h.
[reply] 440 µM

----------
System: hsa-miR-28-5p (MIMAT0000085)
Test: Micro RNA microarray, change of hsa-miR-28-5p expression
Format: cell-based, human
Conditions: result in words
property-label: expression level of hsa-miR-28-5p compared to the normal control group

smiles-text: CCC=O
result: up-regulated
--
smiles-text: CCCCCCC=O
result: down-regulated
--
smiles-text: CCCCC=O
result: up-regulated
--
smiles-text: CCCCCCCCC=O
result: up-regulated

Let us move to another entry and its expression level of hsa-miR-28-5p compared to the normal control group.
[ask] I would be grateful if you could share the reported expression level of hsa-miR-28-5p compared to the normal control group for CCCCCCCC=O .
[reply] down-regulated
